target: 5-hydroxytryptamine receptor 6 (Homo sapiens); test: Displacement of radioligand from human recombinant 5HT6 receptor
Sequence (P50406 whole entry): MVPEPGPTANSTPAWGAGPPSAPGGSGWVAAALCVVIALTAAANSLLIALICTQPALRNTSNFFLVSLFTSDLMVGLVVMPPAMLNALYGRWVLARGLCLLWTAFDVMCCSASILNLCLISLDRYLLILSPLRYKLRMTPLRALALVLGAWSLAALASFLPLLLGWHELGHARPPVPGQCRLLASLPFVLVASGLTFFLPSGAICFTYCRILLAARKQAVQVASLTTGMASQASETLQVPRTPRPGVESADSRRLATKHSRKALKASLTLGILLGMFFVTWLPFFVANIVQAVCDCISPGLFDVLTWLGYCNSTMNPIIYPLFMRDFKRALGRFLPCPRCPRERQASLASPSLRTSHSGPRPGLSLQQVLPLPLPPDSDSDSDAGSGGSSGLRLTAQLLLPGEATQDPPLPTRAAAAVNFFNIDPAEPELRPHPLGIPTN
quantity_measured: Ki (nM)

INSERT INTO results (smiles_text, target_or_test_system, quantity_measured, result_number) VALUES
  ('CCCCc1ccc(S(=O)(=O)Nc2ccc3c(c2)CCN(C)CC3)cc1', '5-hydroxytryptamine receptor 6 (Homo sapiens)', 'Ki', 1.26),
  ('CN1CCc2cc(Br)c(NS(=O)(=O)c3ccc(-c4ccc(Cl)cc4)cc3)cc2CC1', '5-hydroxytryptamine receptor 6 (Homo sapiens)', 'Ki', 50.1),
  ('CN1CCc2cc(Cl)c(NS(=O)(=O)c3ccc(-c4ccc(Cl)cc4)cc3)cc2CC1', '5-hydroxytryptamine receptor 6 (Homo sapiens)', 'Ki', 50.1),
  ('CCCCc1ccc(S(=O)(=O)Nc2ccc3c(c2)CCNCC3)cc1', '5-hydroxytryptamine receptor 6 (Homo sapiens)', 'Ki', 2),
  ('Cc1ccc(-c2ccc(S(=O)(=O)Nc3ccc4c(c3)CCN(C)CC4)cc2)s1', '5-hydroxytryptamine receptor 6 (Homo sapiens)', 'Ki', 6.31),
  ('CN1CCc2ccc(NS(=O)(=O)c3ccc(-c4ccc(F)c(Cl)c4)cc3)cc2CC1', '5-hydroxytryptamine receptor 6 (Homo sapiens)', 'Ki', 7.94),
  ('CCCCc1ccc(S(=O)(=O)Nc2ccc3c(c2)CNC3)cc1', '5-hydroxytryptamine receptor 6 (Homo sapiens)', 'Ki', 50.1),
  ('Cc1cc(S(=O)(=O)Nc2ccc3c(c2)CCN(C)CC3)ccc1-c1ccc(Cl)cc1', '5-hydroxytryptamine receptor 6 (Homo sapiens)', 'Ki', 5.01),
  ('COc1cc2c(cc1NS(=O)(=O)c1ccc(-c3ccc(Cl)cc3)cc1)CCN(C)CC2', '5-hydroxytryptamine receptor 6 (Homo sapiens)', 'Ki', 10),
  ('CC(C)c1cc2c(cc1NS(=O)(=O)c1ccc(-c3ccc(Cl)cc3)cc1)CCN(C)CC2', '5-hydroxytryptamine receptor 6 (Homo sapiens)', 'Ki', 12.6),
  ('CC(C)Oc1cc2c(cc1NS(=O)(=O)c1ccc(-c3ccc(Cl)cc3)cc1)CCN(C)CC2', '5-hydroxytryptamine receptor 6 (Homo sapiens)', 'Ki', 31.6),
  ('CN1CCc2ccc(NS(=O)(=O)c3ccc(-c4ccc(Cl)cc4)cc3)cc2CC1', '5-hydroxytryptamine receptor 6 (Homo sapiens)', 'Ki', 5.01),
  ('Cc1noc(C)c1-c1ccc(S(=O)(=O)Nc2ccc3c(c2)CCN(C)CC3)cc1', '5-hydroxytryptamine receptor 6 (Homo sapiens)', 'Ki', 10),
  ('CN1CCc2ccc(NS(=O)(=O)c3ccc(-c4ccc(Cl)cc4)s3)cc2CC1', '5-hydroxytryptamine receptor 6 (Homo sapiens)', 'Ki', 3.98),
  ('CC(C)Nc1cc2c(cc1NS(=O)(=O)c1ccc(-c3ccc(Cl)cc3)cc1)CCN(C)CC2', '5-hydroxytryptamine receptor 6 (Homo sapiens)', 'Ki', 7.94),
  ('CN1CCc2ccc(NS(=O)(=O)c3ccc(-c4ccc(C#N)cc4)cc3)cc2CC1', '5-hydroxytryptamine receptor 6 (Homo sapiens)', 'Ki', 25.1),
  ('CCCCc1ccc(S(=O)(=O)Nc2ccc3c(c2)CN(C)C3)cc1', '5-hydroxytryptamine receptor 6 (Homo sapiens)', 'Ki', 5.01),
  ('CCCCc1ccc(S(=O)(=O)Nc2ccc3c(c2)CNCC3)cc1', '5-hydroxytryptamine receptor 6 (Homo sapiens)', 'Ki', 25.1),
  ('Cc1cc2c(cc1NS(=O)(=O)c1ccc(-c3ccc(Cl)cc3)cc1)CCN(C)CC2', '5-hydroxytryptamine receptor 6 (Homo sapiens)', 'Ki', 15.8);
